Tested on: Fibroblast
ASSAY COMMENT: Multiplex assay against human fibroblast
Format: toxicity, cell-based
TEST PARAMETERS: 48 h, 10 µM, compound concentration 10 uM, replicate 2
REPORTED METRIC: Population Fragmented Nuclei (%)
Numeric only. Scale: %

Measured Population Fragmented Nuclei (%), N#Cc1c(N)nc(SCc2csc(-c3ccc(Cl)cc3)n2)c(C#N)c1-c1ccc(OCCO)cc1 [CAPADENOSON] : 57

Measured Population Fragmented Nuclei (%), CC(=O)NCCc1c(Cc2ccccc2)[nH]c2ccccc12 [LUZINDOLE] : 34

Measured Population Fragmented Nuclei (%), COc1cc(NC(=O)CCN2CCC(OC(=O)Nc3ccccc3-c3ccccc3)CC2)c(Cl)cc1CNC[C@H](O)c1ccc(O)c2[nH]c(=O)ccc12 [BATEFENTEROL] : 45

Measured Population Fragmented Nuclei (%), N[C@@]1(C(=O)O)CO[C@H]2[C@H](C(=O)O)[C@H]21 [LY-379268] : 27

Measured Population Fragmented Nuclei (%), Cc1ccccc1C(=O)Nc1ccc(C(=O)N2CCCC(N(C)C)c3ccccc32)cc1.Cl (centres undefined) : 43

Measured Population Fragmented Nuclei (%), O=C(NCCO)c1cccc(-c2cc(Nc3ccc(OC(F)(F)F)cc3)ncn2)c1 : 40

Measured Population Fragmented Nuclei (%), O=C1COc2nccc(-c3ccccc3F)c2CN1Cc1cc(C(F)(F)F)cc(C(F)(F)F)c1 : 39

Measured Population Fragmented Nuclei (%), CC1(COc2ccc3c(c2)ncn3-c2ccc3cccc(N4CCC(N)CC4)c3n2)COC1 [CRENOLANIB] : 23

Measured Population Fragmented Nuclei (%), CCNC1(C(N)=O)CCN(c2ncnc3c2nc(-c2ccccc2Cl)n3-c2ccc(Cl)cc2)CC1 [OTENABANT] : 46
